Tested on: Huh-7
protocol details: Antiproliferative activity against human Huh-7 cells assessed as inhibition of cell growth incubated for 5 days by SRB assay
Type: functional, cell-based
run parameters: Huh-7, 120 h

smiles notation: C=CC(=O)Nc1cc(N2CCN(C)CC2)cc(F)c1Nc1n[nH]c2ccc(O[C@H](C)c3c(Cl)cncc3Cl)cc12
readout units: nM
IC50: 96
--
smiles notation: C=CC(=O)Nc1cccc(Cl)c1Nc1ncc2cc(-c3c(Cl)c(OC)cc(OC)c3Cl)ccc2n1
readout units: nM
IC50: 48
--
smiles notation: C=CC(=O)Nc1cc(N2CCC(N3CCOCC3)CC2)cc(F)c1Nc1n[nH]c2ccc(O[C@H](C)c3c(Cl)cncc3Cl)cc12
readout units: nM
IC50: 72
